# assayComment: chemical genetic growth profiling, strain panel (AID 1159580);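 also: tested at 20 µM; growth read once vehicle control cultures reached saturation at 30 °C; 1 = growth at the plate median or of vehicle wells; lower values mean less growth of the strain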
# testParameters: S. cerevisiae deletion strains, growth OD, locus YDL101C, strain DUN1, active compounds read low
Among all 5,500 compounds or so, about 2,000 (36%) were called active. Roughly 18% stayed inconclusive and do not appear here. The list shows a part of the results.
Attribute: normalized growth
Lab note: record just the number, no unit beside it.

Answered examples (3):
* N[C@@H]1CONC1=O | 1.02
* O=c1c(-c2ccccc2)coc2cc(O)cc(O)c12 | 0.494
* C[n+]1cc2c3c(ccc2c2ccc4cc5c(cc4c21)OCO5)OCO3 | 0.0699

Data point: Cc1ccc(COc2ccc(C)nc2[N+](=O)[O-])cc1 ; normalized growth = 0.905

Data point: COc1cc(O)c2c(=O)c(-c3ccc(O)cc3)coc2c1 ; normalized growth = 0.942

Data point: COc1cc2cc[n+]3cc4c(OC)c(OC)ccc4cc3c2cc1OC ; normalized growth = 0.98

Data point: Nc1ccc(C(=O)O)c(O)c1 ; normalized growth = 1.01

Data point: Nc1ccc(C(=O)Oc2ccccc2)c(O)c1 ; normalized growth = 0.906

Data point: Cc1cc(=O)c2c(o1)-c1c(cc(O)c(O)c1C(=O)O)OC2 ; normalized growth = 1

Data point: CC(C)[C@]12O[C@H]1[C@@H]1O[C@@]13[C@@]1(C)CCC4=C(COC4=O)[C@@H]1C[C@@H]1O[C@@]13C2=O ; normalized growth = 1.02

Data point: Cc1cc(=O)c2c(O)c3c(cc2o1)OC(C)(C)CC3 ; normalized growth = 0.989

Data point: CC1=CCc2c(cc3oc(C)cc(=O)c3c2O)OC1 ; normalized growth = 0.943

* * *

Attribute: normalized growth
# assayComment: chemical genetic growth profiling, strain panel (AID 1159580);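 also: tested at 20 µM; growth read once vehicle control cultures reached saturation at 30 °C; 1 = growth at the plate median or of vehicle wells; lower values mean less growth of the strain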
# testParameters: S. cerevisiae deletion strains, growth OD, locus YJL095W, strain BCK1, active compounds read low
The whole screen tested about 5,500 compounds, of which about 2,000 (36%) were called active. Roughly 18% stayed inconclusive and do not appear here. The list shows a part of the results. Where a SMILES comes first, the peptide text is derived from it. Bridges are numbered along the chain shown (N, C = ends). [ ]: non-standard residue; d: D form. The star is where a group is joined. Heptanoyl(6-Me) = CC(C)CCCCC(=O)*; Dab = NCC[CH](N)C(=O)O
Lab note: record just the number, no unit beside it.

* CC(C)[C@]12O[C@H]1[C@@H]1O[C@@]13[C@@]1(C)CCC4=C(COC4=O)[C@@H]1C[C@@H]1O[C@@]13C2=O | 1

Now take the following compound into account.
Data point: CCC(C)C1NC(=O)C(CCN)NC(=O)C(NC(=O)C(CCN)NC(=O)C(NC(=O)C(CCN)NC(=O)CCCCC(C)C)C(C)O)CCNC(=O)C(C(C)O)NC(=O)C(CCN)NC(=O)C(CCN)NC(=O)C(C(C)CC)NC1=O (configuration not stated) ({Heptanoyl(6-Me)}-[Dab]T[Dab][Dab][Dab]II[Dab][Dab]T; lactam 4-C; configuration not given here) ; normalized growth = 0.985

* * *

Attribute: normalized growth
# assayComment: chemical genetic growth profiling, strain panel (AID 1159580);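 also: tested at 20 µM; growth read once vehicle control cultures reached saturation at 30 °C; 1 = growth at the plate median or of vehicle wells; lower values mean less growth of the strain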
# testParameters: S. cerevisiae deletion strains, growth OD, locus YDR388W, active compounds read low
In all, about 5,500 compounds went through this assay and about 2,000 (36%) were called active. Not shown: some 18% with an inconclusive outcome. The list shows a part of the results.

Answered examples (3):
- COc1ccc(-c2cc(=O)c3ccccc3o2)cc1: 0.807 (active)
- COc1cccc2c1cc([N+](=O)[O-])c1c(C(=O)O)cc3c(c12)OCO3: 1.02 (inactive)
- CSc1ccc2c(c1)C(N1CCN(C)CC1)Cc1ccccc1S2 (stereo unspecified): 0.659 (active)

Data point: CC(C)Oc1ccc2c(=O)cc(-c3ccccc3)oc2c1 ; normalized growth = 0.876 (active)

Data point: CC(=O)N(O)CCCCCNC(=O)CCC(=O)N(O)CCCCCNC(=O)CCC(=O)N(O)CCCCCN ; normalized growth = 1.02 (inactive)

Data point: Cc1cc2cc3c(C)cc(=O)oc3c(C)c2o1 ; normalized growth = 0.956 (inactive)
